Recorded pIC50 by entry
biological target: T1, human immunoglobulin E (hIgE) (human, UniProt P01854-1 1-428); test: competition ELISA, biotin-hIgE to coated hFcεRIα, pH 7.4
T1 construct: also called human IgE; Native IgE (Abcam)
T1 sequence (P01854 whole entry): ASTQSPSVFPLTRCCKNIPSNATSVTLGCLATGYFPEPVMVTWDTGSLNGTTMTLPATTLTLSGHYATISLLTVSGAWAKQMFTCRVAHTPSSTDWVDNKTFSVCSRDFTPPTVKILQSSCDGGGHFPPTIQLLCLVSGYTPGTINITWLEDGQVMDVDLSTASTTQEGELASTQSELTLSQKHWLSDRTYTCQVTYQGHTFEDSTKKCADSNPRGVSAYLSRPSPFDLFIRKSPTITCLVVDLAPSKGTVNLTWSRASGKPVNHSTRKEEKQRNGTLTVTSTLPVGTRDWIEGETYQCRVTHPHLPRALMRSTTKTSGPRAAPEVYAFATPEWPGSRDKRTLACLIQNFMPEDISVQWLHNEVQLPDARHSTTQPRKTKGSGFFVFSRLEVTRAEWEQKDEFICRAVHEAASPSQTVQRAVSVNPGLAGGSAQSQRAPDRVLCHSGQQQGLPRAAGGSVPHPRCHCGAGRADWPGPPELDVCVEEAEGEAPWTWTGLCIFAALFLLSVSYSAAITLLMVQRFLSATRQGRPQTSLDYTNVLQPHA
pIC50: −log10 of the molar value.
Measurement type: pIC50

- Binder: "16E4 human IgG1 mAb (antibody, V domains shown, also called clone 16E4) VH: EVQLVESGGGLVQPGGSLRLSCAASGFTFSSYYMSWVRQAPGKGLEWVSSIYSDGSYAYYADSVKGRFTISRDNAKNTLYLQMNSLKSEDTAVYYCAKDLKARYSGTYHDEGYDYWGQGTQVTVSS VL: SSALTQPSALSVTLGQSAKITCQGGSLGATYAYWYQQKPGQAPVLVIYDDDSRPSGIPERFSGSSSGGRATLTISGAQAEDEGDYYCQSAYSNGNAVFGGGTHLTVL"
  Obs value: 7.24
- Binder: "18E2 human IgG1 mAb (antibody, V domains shown, also called clone 18E2) VH: QLQLVESGGGLVQPGGSLRLSCAASGFTFSSYVMSWVRQAPGKGLEWVSSIYHDGSHTYYADFVKGRFTISRDNAKNTLYLQMNSLKSEDTAVYYCASGTSYSGSYYYTDPFFGSWGQGTQVTVSS VL: NFMLTQPSALSVTLGQTARITCQGDRLGSRYIYWYQQKPPQAPVLVIHDDDRRPSGIPERFSGSSSGGTATLTISGAQAEDDGDYYCQSADSSGNPVFGGGTHLTVL"
  Obs value: 7.43
- Binder: "3A1 human IgG1 mAb (antibody, V domains shown, human IgG1 and human light chain constant domains; also called clone 3A1) VH: EVQVQESGGGLVQPGGSLRLSCAASGFTFDNYAMSWVRQAPGKGLEWVSAISWNGGSTYYAESMKGRFTISRDNAKNMLYLQMNSLKSEDTAVYYCAKDLLVAARGGMDYWGKGTLVTVSS VL: SSALTQPSAVSVSLEQTARITCQGGTLGSYGAHWYQQKPGQAPVLLIYGDNSRPSGIPERFSGTRSGGTATLTISGAQAEDEADYYCQSFDYSGNAVFGGGTHLTVL"
  Obs value: 6.82
